Data provenance: PubChem BioAssay AID1159580

method description: chemical genetic growth profiling, strain panel (AID 1159580);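 note: tested at 20 µM; growth read once vehicle control cultures reached saturation at 30 °C; 1 = growth at the plate median or of vehicle wells; lower values mean less growth of the strain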
condition parameters: S. cerevisiae deletion strains, growth OD, locus YBR009C, strain hhf1, active compounds read low
Among all 5,500 compounds or so, about 2,000 (36%) were called active. Not shown: some 18% with an inconclusive outcome. This is one part of the list.
value kind: normalized growth
API doc: respond with a numeric literal and nothing else, no unit.

Dear colleague, I am looking for the recorded normalized growth of the following compound: CC1C[C@H]2CC(=O)[C@H]3CCCN4CCC[C@H]2[C@]34C1 (stereo not given in full)
1

What would you report for `Cn1c(=O)c2[nH]cnc2n(C)c1=O` ?
1

What would you report for CCCCCCCCCCCCCCCC(=O)OC1C(SC)OC(C(NC(=O)C2CC(CCC)CN2C)C(C)Cl)C(O)C1O (stereo not given) ?
0.977

What would you report for `CC1(C)NC(=O)N(c2ccc([N+](=O)[O-])c(C(F)(F)F)c2)C1=O` ?
0.982

What would you report for CCCC(=O)O[C@]1(C(=O)CO)CCC2[C@@H]3CCC4=CC(=O)CC[C@]4(C)C3[C@@H](O)C[C@@]21C (stereo not given in full) ?
1
